- method: Drug uptake in C57/BL6 mouse left epididymal fat at 30 mg/kg, po after 24 hrs
- Format: ADME, organism-based, Epididymal fat pad
- Parameters: dose 30 mg/kg, route oral
- measurement.parameters: male, read-out: Drug uptake
property.measured: concentration at 24 h (nM)
Return type: number; implicit unit nM.

Incoming: What concentration at 24 h value was documented for this compound, O=C(O)c1cncc(-c2ccc(N3CCC(Oc4cc(F)ccc4Br)CC3)nn2)c1 ?
Outgoing: 45

* * *

- method: Drug uptake in C57/BL6 mouse skin at 30 mg/kg, po after 6 hrs
- Format: ADME, organism-based, Zone of skin
- Design: dose 30 mg/kg, route oral
- measurement.parameters: read-out: Drug uptake
property.measured: concentration at 6 h (nM)
Return type: number; implicit unit nM.

Incoming: What concentration at 6 h value was documented for this compound, O=C(O)c1cncc(-c2ccc(N3CCC(Oc4cc(F)ccc4Br)CC3)nn2)c1 ?
Outgoing: 55

* * *

- assay.target: UniProtKB Q86SK9
- Sequence (Q86SK9 whole entry): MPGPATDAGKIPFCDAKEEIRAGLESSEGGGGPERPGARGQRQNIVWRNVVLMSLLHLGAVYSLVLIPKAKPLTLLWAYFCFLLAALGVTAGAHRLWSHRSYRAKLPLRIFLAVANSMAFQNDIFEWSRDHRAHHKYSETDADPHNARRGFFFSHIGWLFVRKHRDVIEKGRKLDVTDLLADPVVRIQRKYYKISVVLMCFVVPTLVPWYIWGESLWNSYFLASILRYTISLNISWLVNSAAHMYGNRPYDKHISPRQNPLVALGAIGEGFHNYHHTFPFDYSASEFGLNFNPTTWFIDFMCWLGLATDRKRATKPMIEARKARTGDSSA
property.measured: pIC50
In plain terms, pIC50 is the concentration in mol/L turned into minus its base-10 logarithm.

Incoming: For UniProtKB Q86SK9, provide pIC50 of O=C(O)c1cncc(-c2ccc(N3CCC(Oc4cc(F)ccc4Br)CC3)nn2)c1 please.
Outgoing: 8.40

* * *

- method: Drug uptake in C57/BL6 mouse skin at 30 mg/kg, po after 2 hrs
- Type: ADME, organism-based, Zone of skin
- Parameters: dose 30 mg/kg, route oral
- measurement.parameters: read-out: Drug uptake
property.measured: concentration at 2 h (nM)
Return type: number; implicit unit nM.

Incoming: What concentration at 2 h value was documented for this compound, O=C(O)c1cncc(-c2ccc(N3CCC(Oc4cc(F)ccc4Br)CC3)nn2)c1 ?
Outgoing: 170

* * *

- method: Volume of distribution at steady state in C57/BL6 mouse at 10 mg/kg, po and 2 mg/kg, iv
- Assay type: ADME, organism-based
- measurement.parameters: in vivo, read-out: Vdss
property.measured: Vd (L/kg)
Return type: number; implicit unit L/kg.

Incoming: What Vd value was documented for this compound, O=C(O)c1cncc(-c2ccc(N3CCC(Oc4cc(F)ccc4Br)CC3)nn2)c1 ?
Outgoing: 1.12
